# pIC50 values compiled below
- Tested on: 843126-344-R-J1-PDC complex spheroid viability
- Measurement description: Anticancer human tumor 843126-344-R-J1-PDC patient-derived melanoma cell line growth inhibition [POLQ]
- Stated conditions: curve of first compound; second compound 10 µM
pIC50: −log10 of the molar value.

# annotated cases, reported pIC50 shown
CC[C@@]1(O)C(=O)OCc2c1cc1n(c2=O)Cc2cc3c(CN(C)C)c(O)ccc3nc2-1 + Cc1cccc(N(C)C(=O)C2C(O)CCN2c2nc(C)cc(C(F)(F)F)c2C#N)c1: 7.01
CCCS(=O)(=O)Nc1ccc(F)c(C(=O)c2c[nH]c3ncc(-c4ccc(Cl)cc4)cc23)c1F + Nc1ccc(C#CCN(C(=O)Cc2ncc(C(F)(F)F)cc2C(F)(F)F)c2ccc(F)cc2)nn1: < 5.00
CC(C)n1c(=O)n(C)c2cnc3cc(F)c(-c4ccc(OCCCN5CCCCC5)nc4)cc3c21 + Cc1cccc(N(C)C(=O)C2C(O)CCN2c2nc(C)cc(C(F)(F)F)c2C#N)c1: < 5.00
O=C(Nc1ccc(O)c(NS(=O)(=O)c2ccc(F)cc2)c1)c1ccc(-c2ccccc2)cc1 + Nc1ccc(C#CCN(C(=O)Cc2ncc(C(F)(F)F)cc2C(F)(F)F)c2ccc(F)cc2)nn1: < 5.00
CC1COCCN1c1cc(C2(O)CC3CCC(C2)O3)c2cnn(-c3ccn[nH]3)c2n1 (stereo not given) + Cc1cccc(N(C)C(=O)C2C(O)CCN2c2nc(C)cc(C(F)(F)F)c2C#N)c1: 6.12
CC(C)n1c(=O)n(C)c2cnc3cc(F)c(-c4ccc(OCCCN5CCCCC5)nc4)cc3c21 + COC1C(OC(N)=O)C(O)C(Oc2ccc3c(O)c(NC(=O)c4ccc(O)c(CC=C(C)C)c4)c(=O)oc3c2C)OC1(C)C: < 5.00
C#Cc1c(F)ccc2cc(O)cc(-c3ncc4c(N5CC6CCC(C5)N6)nc(OCC56CCCN5CC(F)C6)nc4c3F)c12 (stereo not given) + Cc1cccc(N(C)C(=O)C2C(O)CCN2c2nc(C)cc(C(F)(F)F)c2C#N)c1: < 5.00
COc1cc2cc(C(=O)CCC(=O)O)sc2cc1OC + COC1C(OC(N)=O)C(O)C(Oc2ccc3c(O)c(NC(=O)c4ccc(O)c(CC=C(C)C)c4)c(=O)oc3c2C)OC1(C)C: < 5.00
C=CCn1c(=O)c2cnc(Nc3ccc(N4CCN(C)CC4)cc3)nc2n1-c1cccc(C(C)(C)O)n1 + Nc1ccc(C#CCN(C(=O)Cc2ncc(C(F)(F)F)cc2C(F)(F)F)c2ccc(F)cc2)nn1: < 6.00

Value lookup for pIC50; key = O=C(c1cc(Cc2n[nH]c(=O)c3ccccc23)ccc1F)N1CCN(C(=O)C2CC2)CC1 + COC1C(OC(N)=O)C(O)C(Oc2ccc3c(O)c(NC(=O)c4ccc(O)c(CC=C(C)C)c4)c(=O)oc3c2C)OC1(C)C < 5.00

----------
# viability, T/C values compiled below
- System: 843126-344-R-J1-PDC complex spheroid viability
- Measurement description: Anticancer human tumor 843126-344-R-J1-PDC cell line growth inhibition [POLQ];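 on viability, T/C: spheroids exposed to drugs for seven days before readout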
- Stated conditions: second compound 0.0316 µM; first compound 0.1 µM; stronger effect = lower value
Response body: numeric value in %, unit text excluded.

# annotated cases, reported viability, T/C shown
CC[C@@]1(O)C(=O)OCc2c1cc1n(c2=O)Cc2cc3c(CN(C)C)c(O)ccc3nc2-1 + Cc1cccc(N(C)C(=O)C2C(O)CCN2c2nc(C)cc(C(F)(F)F)c2C#N)c1: 52.5
O=c1[nH]cc(F)c(=O)[nH]1 + Cc1cccc(N(C)C(=O)C2C(O)CCN2c2nc(C)cc(C(F)(F)F)c2C#N)c1: 112

Value lookup for viability, T/C; key = COc1cc2cc(C(=O)CCC(=O)O)sc2cc1OC + Nc1ccc(C#CCN(C(=O)Cc2ncc(C(F)(F)F)cc2C(F)(F)F)c2ccc(F)cc2)nn1 82.5

Reference source: PubChem BioAssay AID1963837
